binding signal reference
SYSTEM_UNDER_TEST: T1, RBFOX1 RRM RbFoxmut (Fox-RRM*) (Homo sapiens, UniProt Q9NWB1 109-208, R118D;E147R;N151S;E152T)
T1 sequence: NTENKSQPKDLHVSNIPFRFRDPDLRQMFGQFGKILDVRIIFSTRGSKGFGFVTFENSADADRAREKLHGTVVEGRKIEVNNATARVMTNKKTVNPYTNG
MEASUREMENT_NOTES: EMSA; HiTS-Eq, 1 nM pool, 10 min; buffer printed only for the single-RNA assays: 10 mM Tris pH 7.5, 150 mM NaCl, 3.4 mM EDTA, 0.001% NP-40, 30 C
REPORTED_CONDITIONS: tags: His6 N-terminal (pET28a); label: 5' 32P
The full ranking holds about 16,000 sequences; the median of “ka relative to ugcaugu” is about 0.096, and the highest 2% start at about 0.35. What follows is part of a selection rich in the highest values, with near analogues and random picks from the rest.
ASSAY_ENDPOINT: binding signal

[[record]]
binder = "GUCGGCC (DNA:RNA) RNA: GGGAGACCGGAAUUCAGAUUGUCCGUCGGCCUUAAAUCCCGUCGUAGCCACCA DNA 1: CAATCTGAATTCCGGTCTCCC DNA 2: TGGTGGCTACGACGGGATT"
recorded_measurement = "0.214 KA relative to UGCAUGU"

[[record]]
binder = "UCGUACU (DNA:RNA) RNA: GGGAGACCGGAAUUCAGAUUGUCCUCGUACUUUAAAUCCCGUCGUAGCCACCA DNA 1: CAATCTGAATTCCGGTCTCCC DNA 2: TGGTGGCTACGACGGGATT"
recorded_measurement = "0.0912 KA relative to UGCAUGU"

[[record]]
binder = "AGCACGA (DNA:RNA) RNA: GGGAGACCGGAAUUCAGAUUGUCCAGCACGAUUAAAUCCCGUCGUAGCCACCA DNA 1: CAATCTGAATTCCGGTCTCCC DNA 2: TGGTGGCTACGACGGGATT"
recorded_measurement = "0.141 KA relative to UGCAUGU"

[[record]]
binder = "GCCUUGC (DNA:RNA) RNA: GGGAGACCGGAAUUCAGAUUGUCCGCCUUGCUUAAAUCCCGUCGUAGCCACCA DNA 1: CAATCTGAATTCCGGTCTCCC DNA 2: TGGTGGCTACGACGGGATT"
recorded_measurement = "0.387 KA relative to UGCAUGU"

